- Target under test: bovine cardiac myofibrils (full-length cardiac myosin ATPase in the native sarcomere) (Bos taurus (Bovine), UniProt Q9BE39)
- Sequence (Q9BE39 whole entry): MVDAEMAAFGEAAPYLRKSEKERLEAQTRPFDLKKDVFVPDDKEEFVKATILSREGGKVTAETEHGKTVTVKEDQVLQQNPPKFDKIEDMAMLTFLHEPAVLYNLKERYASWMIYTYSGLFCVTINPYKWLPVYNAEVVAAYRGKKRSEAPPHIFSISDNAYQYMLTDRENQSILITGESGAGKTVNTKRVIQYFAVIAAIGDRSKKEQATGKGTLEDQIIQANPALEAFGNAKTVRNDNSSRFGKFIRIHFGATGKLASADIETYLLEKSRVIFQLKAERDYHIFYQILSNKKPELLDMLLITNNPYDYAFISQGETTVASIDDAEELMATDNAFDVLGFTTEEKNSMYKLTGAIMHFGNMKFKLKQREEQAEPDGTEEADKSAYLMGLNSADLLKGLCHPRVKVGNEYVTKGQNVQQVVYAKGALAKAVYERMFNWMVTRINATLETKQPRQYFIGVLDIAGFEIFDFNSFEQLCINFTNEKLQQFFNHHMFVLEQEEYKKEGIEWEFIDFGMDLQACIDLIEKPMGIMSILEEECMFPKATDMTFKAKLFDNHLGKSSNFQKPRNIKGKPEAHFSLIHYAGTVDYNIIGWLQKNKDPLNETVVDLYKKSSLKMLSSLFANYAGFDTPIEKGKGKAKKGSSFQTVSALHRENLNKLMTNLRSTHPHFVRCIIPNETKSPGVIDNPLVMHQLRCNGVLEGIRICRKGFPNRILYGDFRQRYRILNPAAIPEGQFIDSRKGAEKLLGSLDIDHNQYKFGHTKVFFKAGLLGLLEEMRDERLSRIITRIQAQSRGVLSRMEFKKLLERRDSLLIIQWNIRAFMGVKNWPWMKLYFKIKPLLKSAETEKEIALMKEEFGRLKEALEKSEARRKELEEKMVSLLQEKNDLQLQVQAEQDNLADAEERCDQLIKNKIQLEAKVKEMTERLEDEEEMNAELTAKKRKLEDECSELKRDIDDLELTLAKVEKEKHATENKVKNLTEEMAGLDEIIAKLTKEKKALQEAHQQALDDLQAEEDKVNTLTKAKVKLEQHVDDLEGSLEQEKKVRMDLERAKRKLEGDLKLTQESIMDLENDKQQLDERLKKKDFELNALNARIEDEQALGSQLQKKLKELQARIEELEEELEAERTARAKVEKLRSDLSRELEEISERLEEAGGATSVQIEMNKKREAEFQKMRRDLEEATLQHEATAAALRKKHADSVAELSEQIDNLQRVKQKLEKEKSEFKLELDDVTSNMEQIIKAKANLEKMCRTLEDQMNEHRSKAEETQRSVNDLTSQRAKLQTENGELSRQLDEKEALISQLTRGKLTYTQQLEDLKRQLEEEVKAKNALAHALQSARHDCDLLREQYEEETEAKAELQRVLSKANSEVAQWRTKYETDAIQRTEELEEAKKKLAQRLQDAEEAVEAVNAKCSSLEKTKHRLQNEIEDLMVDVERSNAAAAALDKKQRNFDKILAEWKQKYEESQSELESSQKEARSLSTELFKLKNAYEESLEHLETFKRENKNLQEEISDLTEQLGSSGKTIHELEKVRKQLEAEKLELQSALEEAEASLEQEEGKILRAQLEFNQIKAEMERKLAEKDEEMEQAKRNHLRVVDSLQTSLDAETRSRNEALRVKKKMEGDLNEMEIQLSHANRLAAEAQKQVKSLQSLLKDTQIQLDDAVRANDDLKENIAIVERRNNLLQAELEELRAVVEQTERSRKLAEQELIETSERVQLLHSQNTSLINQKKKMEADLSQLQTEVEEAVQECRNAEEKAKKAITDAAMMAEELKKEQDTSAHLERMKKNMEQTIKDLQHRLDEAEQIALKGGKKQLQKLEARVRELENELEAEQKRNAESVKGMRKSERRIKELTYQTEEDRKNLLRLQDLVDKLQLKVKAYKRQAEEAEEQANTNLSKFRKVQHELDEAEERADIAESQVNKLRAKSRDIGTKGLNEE
- Sequence (P85100 whole entry partner): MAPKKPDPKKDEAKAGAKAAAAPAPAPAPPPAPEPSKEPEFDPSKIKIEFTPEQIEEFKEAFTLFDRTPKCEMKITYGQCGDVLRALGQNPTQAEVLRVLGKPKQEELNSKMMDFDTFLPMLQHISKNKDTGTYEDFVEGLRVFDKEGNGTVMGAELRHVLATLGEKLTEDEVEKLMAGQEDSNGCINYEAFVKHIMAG
- Sequence (Q3SZE5 whole entry partner): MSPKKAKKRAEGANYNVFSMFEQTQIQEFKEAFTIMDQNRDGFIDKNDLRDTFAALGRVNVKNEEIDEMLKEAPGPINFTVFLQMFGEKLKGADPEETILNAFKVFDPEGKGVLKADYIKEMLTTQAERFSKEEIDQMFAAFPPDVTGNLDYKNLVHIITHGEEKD
- Assay comment: Skinned bovine cardiac myofibril ATPase assay (PK/LDH-coupled)
- Stated conditions: Ca2+ activating to 75% of maximal rate, read-out: CDMF75 IC50
Measured parameter: IC50 (µM)

>>> reading("Cc1cc(C(=O)N[C@@H]2CCc3cc(-c4ncc(C)o4)ccc32)ccn1")
17.3
>>> reading("Cc1cc(C(=O)NC2COc3cc(-c4noc(C5CC5)n4)ccc32)n(C)n1 (centres unmarked)")
2.4

I = COCc1nc(-c2ccc3c(c2)CC[C@H]3NC(=O)c2cn(CCO)nc2C)no1
II = Cc1nc(-c2ccc3c(c2)OC[C@H]3NC(=O)c2cccc([C@H](C)O)c2)no1
Ask: // compare measured IC50 between I and II ; output the lower one Use the label to indicate which entry you chose.
Result: II
(II: 4.1 µM, I: 7.8 µM)

* * *

- Target under test: bovine cardiac myofibrils (full-length cardiac myosin ATPase in the native sarcomere) (Bos taurus (Bovine))
- Assay comment: Skinned bovine cardiac myofibril ATPase assay (PK/LDH-coupled)
- Stated conditions: Ca2+ activating to 75% of maximal rate, read-out: CDMF75 IC50
- Experimental: To evaluate the effect of compounds on the ATPase activity of full-length cardiac myosin in the context of the native sarcomere, skinned myofibril assays were performed. […] Small molecule agents were assessed for their ability to inhibit the steady-state ATPase activity of bovine cardiac myofibrils using pyruvate kinase and lactate dehydrogenase (PK/LDH)-coupled enzyme system. This assay regenerates myosin-produced ADP into ATP by oxidizing NADH, producing an absorbance change at 340 nm. […]
Measured parameter: IC50 (nM)

Solved entries:
>>> reading("CC(=O)N[C@@H]1CCc2cc(-c3noc(C4CCC4)n3)ccc21 [Compound 406]")
7700
>>> reading("Cc1n[nH]cc1C(=O)NC1CCc2cc(-c3noc(C(F)F)n3)ccc21 (centres unmarked) [Compound 69]")
2300
>>> reading("Cc1csc(C(=O)NC2CCc3cc(-c4noc(C(F)F)n4)ccc32)n1 (centres unmarked) [Compound 60]")
8300

P = CCc1nc(-c2ccc3c(c2)CC[C@H]3NC(=O)c2nnc(C)o2)no1 [Compound 617]
Q = Cc1ncc(C(=O)N[C@@H]2COc3cc(-c4noc(C5CC5)n4)ccc32)o1 [Compound 463]
Ask: // compare measured IC50 between P and Q ; output the lower one Use the label to indicate which entry you chose.
Result: P

* * *

- Target under test: bovine cardiac myofibrils (full-length cardiac myosin ATPase in the native sarcomere) (Bos taurus (Bovine), UniProt Q9BE39)
- Assay comment: Skinned bovine cardiac myofibril ATPase assay (PK/LDH-coupled)
- Stated conditions: Ca2+ activating to 75% of maximal rate, read-out: CDMF75 IC50
Measured parameter: IC50 (µM)

Solved entries:
>>> reading("CCc1nc(-c2ccc3c(c2)CC[C@H]3NC(=O)c2coc(C)n2)no1 [Compound 561]")
7
>>> reading("Cc1nc(-c2ccc3c(c2)OC[C@H]3NC(=O)c2oc(C)nc2C)no1 [Compound 161]")
4.4
>>> reading("Cc1cc(C(=O)N[C@@H]2CCc3cc(-c4noc(C(C)C)n4)ccc32)ccn1 [Compound 392]")
2.7

I = COCc1nc(-c2ccc3c(c2)CC[C@H]3NC(=O)c2nonc2C)no1 [Compound 692]
II = COCc1nc(-c2ccc3c(c2)CC[C@H]3NC(=O)C(F)F)no1 [Compound 437]
III = CCc1nc(-c2ccc3c(c2)CC[C@H]3NC(=O)c2cc(Cl)no2)no1 [Compound 620]
IV = CCc1nc(-c2ccc3c(c2)OC[C@H]3NC(=O)N2CC[C@H](F)C2)no1 [Compound 742]
V = Cc1noc(-c2ccc3c(c2)CC[C@H]3NC(=O)c2cccc(CO)c2)n1 [Compound 706]
Ask: # rank by IC50, ascending (min first) Write the labels out in the order the request specifies.
Result: III, V, I, IV, II
